composite z-score values, listed per item
# assay_overview: small-molecule binders of probe aNOTCH3, primary screen, biochemical, small-molecule microarray, 635/667 nm fluorescence (AID 1120);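 also: probe is a biotin-tagged antibody raised against NOTCH3 rather than NOTCH3 protein; score merges spot fluorescence near 667 nm with spot signal to noise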
# assay_context: higher = more signal

compound: CC(CCN1CCCCc2nc(C)c(C)cc21)=NO[C@H](C)c1cn([C@H](CO)Cc2ccccc2)nn1
composite z-score: -0.0076
--
compound: COC(=O)[C@H](C)NC(=O)CCC1CC(OC(=O)NCCc2ccc(F)cc2)CC2(CCCC(COC(=O)NCCC(C)C)O2)O1 (some centres not stated)
composite z-score: -0.0262
--
compound: CCCCC#C[C@@H]1C=C[C@H](Oc2ccc(C(=O)OC)cc2)[C@@H](COC(=O)OCC)O1
composite z-score: -0.106
--
compound: O=C1C=C[C@@H](O)[C@@H]2[C@@H]3C(=O)N(c4ccc(F)cc4F)C(=O)[C@@H]3CC[C@@H]12
composite z-score: 0.0409
--
compound: O=C1[C@H]2[C@H]3[C@H](O)[C@H](O)CC(=NOC[C@@H](O)COCc4ccco4)[C@@H]3CC[C@H]2C(=O)N1C[C@@H]1CCCO1
composite z-score: -0.0345
--
compound: COC(=O)CC=C[C@@H](C)[C@@H](C=NO[C@@H](C)c1cn([C@H](CO)Cc2ccccc2)nn1)NS(=O)(=O)c1ccc(C)cc1
composite z-score: 0.107
--
compound: COC(=O)[C@H](C)NC(=O)CCC1CC(OC(=O)NCc2ccc3c(c2)OCO3)CC2(CCCC(COC(=O)NCC(c3ccccc3)c3ccccc3)O2)O1 (some centres not stated)
composite z-score: 0.0159

Origin of measurements: PubChem BioAssay
